Origin of values: patent US5541175A

tested on: Pseudomonas aeruginosa 10145; assay: Minimum inhibitory concentration (agar 2-fold dilution); type: cell-based; conditions: Pseudomonas aeruginosa; P. aeruginosa 10145; Muller-Hinton agar, 37° C., 20 hours; read-out: Minimum Inhibitory Concentration
# Criterion met = MIC below 2 µg/mL (exclusive); Criterion not met = MIC at/above 2 µg/mL

Q: API: query returns whether the molecule falls strictly under 2 µg/mL in MIC. Query: Nc1nc(/C(=N/O[C@@H](C(=O)O)c2ccc(O)c(O)c2)C(=O)N[C@@H]2C(=O)N3C(C(=O)[O-])=C(/C=C/C[n+]4cnc(N)c5c4CCC5)CS[C@H]23)cs1
A: Criterion not met

Q: API: query returns whether the molecule falls strictly under 2 µg/mL in MIC. Query: Cc1c(N)nc[n+](C/C=C/C2=C(C(=O)[O-])N3C(=O)[C@@H](NC(=O)/C(=N\O[C@@H](C(=O)O)c4ccc(O)c(O)c4)c4csc(N)n4)[C@H]3SC2)c1N
A: Criterion not met

Q: API: query returns whether the molecule falls strictly under 2 µg/mL in MIC. Query: Nc1cc(N)[n+](C/C=C/C2=C(C(=O)[O-])N3C(=O)[C@@H](NC(=O)/C(=N\O[C@H](C(=O)O)c4ccc(O)c(O)c4)c4csc(N)n4)[C@H]3SC2)cn1
A: Criterion met

Q: API: query returns whether the molecule falls strictly under 2 µg/mL in MIC. Query: Cc1c(N)nc[n+](C/C=C/C2=C(C(=O)[O-])N3C(=O)[C@@H](NC(=O)/C(=N\O[C@H](C(=O)O)c4ccc(O)c(O)c4)c4csc(N)n4)[C@H]3SC2)c1N
A: Criterion met

Q: API: query returns whether the molecule falls strictly under 2 µg/mL in MIC. Query: Nc1cc(N)[n+](C/C=C/C2=C(C(=O)[O-])N3C(=O)[C@@H](NC(=O)/C(=N\O[C@@H](C(=O)O)c4ccc(O)c(O)c4)c4csc(N)n4)[C@H]3SC2)cn1
A: Criterion not met

Q: API: query returns whether the molecule falls strictly under 2 µg/mL in MIC. Query: Nc1cc[n+](C/C=C/C2=C(C(=O)[O-])N3C(=O)[C@@H](NC(=O)/C(=N\O[C@H](C(=O)O)c4ccc(O)c(O)c4)c4csc(N)n4)[C@H]3SC2)cn1
A: Criterion met

Q: API: query returns whether the molecule falls strictly under 2 µg/mL in MIC. Query: Nc1nc(/C(=N/O[C@H](C(=O)O)c2ccc(O)c(O)c2)C(=O)N[C@@H]2C(=O)N3C(C(=O)[O-])=C(/C=C/C[n+]4cnc(N)c(N)c4N)CS[C@H]23)cs1
A: Criterion met

Q: API: query returns whether the molecule falls strictly under 2 µg/mL in MIC. Query: Nc1cc[n+](C/C=C/C2=C(C(=O)[O-])N3C(=O)[C@@H](NC(=O)/C(=N\O[C@@H](C(=O)O)c4ccc(O)c(O)c4)c4csc(N)n4)[C@H]3SC2)cn1
A: Criterion not met

Q: API: query returns whether the molecule falls strictly under 2 µg/mL in MIC. Query: Nc1nc(/C(=N/O[C@H](C(=O)O)c2ccc(O)c(O)c2)C(=O)N[C@@H]2C(=O)N3C(C(=O)[O-])=C(/C=C/C[n+]4cnc(N)c5c4CCC5)CS[C@H]23)cs1
A: Criterion met
